# experimental.system: C/EBPβ bZIP domain (mouse, UniProt P28033 221-296)
# Sequence (P28033 221-296): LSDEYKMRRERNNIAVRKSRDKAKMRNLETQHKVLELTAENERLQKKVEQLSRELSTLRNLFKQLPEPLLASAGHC
# method: fluorescence polarization; FP: 5 nM DNA, 20 mM Tris-HCl pH 7.5, 150 mM NaCl, 5% glycerol, 0.5 mM TCEP, 0.1 mg/ml BSA, 30 min, temperature not stated; EMSA conditions as in earlier work, not given
# experimental.setup: protein: recombinant; tags: N-terminal 6xHis (pET-45b); chain copies: 2; label: 5'-FAM on strand 1; blunt
pKd: −log10 of the molar value.
measured.metric: pKd

1) FP_CREB (unmethylated half-CRE•C/EBP Il36a) (dsDNA) DNA 1: CATCTTACGTCACCT DNA 2: AGGTGACGTAAGATG: 7.10
2) FP_CREBmeth (methylated half-CRE•C/EBP Il36a) (dsDNA, 5-methyl-C (mC) at position 8 of strand 1 and position 7 of strand 2) DNA 1: CATCTTACGTCACCT DNA 2: AGGTGACGTAAGATG: 7.00
